System: HSSY-II tumor spheroid viability
TEST_PROTOCOL: Anticancer human tumor HSSY-II cell line growth inhibition; active = viability on the fitted dose curve at most 10% of control; inactive = the rest;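 note: spheroids exposed to compounds for seven days before reading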
CONDITIONS_USED: second compound 0.003 µM; first compound 0.1 µM; spheroids with HUVEC and MSC
Outcome (select one): active, inactive

Illustrative cases are given below, each with its answer.
# COMPOUND, GROUP
records = [
    ("Cc1cc(C)c(CNC(=O)c2cc(-c3ccc(CN4CCOCC4)cc3)cc3c2cnn3C2CCCC2)c(=O)[nH]1 + CC[C@@]1(O)C(=O)OCc2c1cc1n(c2=O)Cc2cc3c(CN(C)C)c(O)ccc3nc2-1", "inactive"),
    ("COc1cc(C)[nH]c(=O)c1CN1CCc2c(Cl)cc(C(OC)C3COC3)c(Cl)c2C1=O (stereo not drawn) + CC[C@@]1(O)C(=O)OCc2c1cc1n(c2=O)Cc2cc3c(CN(C)C)c(O)ccc3nc2-1", "inactive"),
]

Could you now look at the following compound, please?
Would you mind telling me which call this test gave [2H]c1nc(C)nc([2H])c1-c1cc(NC[C@@H](C)c2cccc3c(C(=O)NC)ccnc23)ncn1 + COc1cc2c(cc1O)CCNC21CSC2c3c(OC(C)=O)c(C)c4c(c3C(COC1=O)N1C(O)C3Cc5cc(C)c(OC)c(O)c5C(C21)N3C)OCO4 ?
active
